Origin of values: patent US11530244B2

assayTarget: PCSK9 (Homo sapiens (Human))
Sequence (Q8NBP7 153-692): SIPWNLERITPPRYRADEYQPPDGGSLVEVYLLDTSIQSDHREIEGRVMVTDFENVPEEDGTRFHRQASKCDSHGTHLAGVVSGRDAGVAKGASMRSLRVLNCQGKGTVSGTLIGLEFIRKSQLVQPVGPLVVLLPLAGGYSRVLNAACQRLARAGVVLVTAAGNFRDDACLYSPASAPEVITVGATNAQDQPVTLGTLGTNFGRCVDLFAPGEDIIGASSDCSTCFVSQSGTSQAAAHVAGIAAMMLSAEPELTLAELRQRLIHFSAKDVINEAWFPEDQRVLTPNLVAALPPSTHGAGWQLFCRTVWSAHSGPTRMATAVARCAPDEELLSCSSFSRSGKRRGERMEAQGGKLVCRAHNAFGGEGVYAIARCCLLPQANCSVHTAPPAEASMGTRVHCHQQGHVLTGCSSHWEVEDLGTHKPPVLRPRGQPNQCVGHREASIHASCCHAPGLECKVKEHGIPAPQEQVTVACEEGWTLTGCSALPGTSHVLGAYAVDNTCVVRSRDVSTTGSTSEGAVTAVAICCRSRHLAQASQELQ
assayName: PCSK9 Alexa FRET Standard assay (displacement of AlexaFluor647 tagged cyclic peptide Reagent A)
Type: binding
conditionParameters: PCSK9 Alexa FRET Standard assay, 0.5 nM PCSK9, 20 nM AF cyclic peptide Reagent A; read-out: IC50
Starred links: 1 amine or outer side, 2 acyl side, 3 side chain; linkers in the order of their positions; H or OH if unused. Positions of bridges follow the written chain, without caps; N, C: chain ends. Non-standard residues stand in square brackets, D forms with d. Residues, ends and D or L forms follow the SMILES beside them. *: point of attachment. Phe(4-COOH) = N[C@@H](Cc1ccc(C(=O)O)cc1)C(=O)O; Trp(5-F) = N[C@@H](Cc1c[nH]c2ccc(F)cc12)C(=O)O; Pro(cis-4-F) = O=C(O)[C@@H]1C[C@H](F)CN1; mXylylene = c1cc(C[*:1])cc(C[*:2])c1; AEF = NCCOc1ccc(C[C@H](N)C(=O)O)cc1; X48 = CC(N[*:1])c1ncc(C(=O)[*:2])s1; X34 = O=C(CCC1CCN([*:1])CC1)[*:2]; αMeP = C[C@@]1(C(=O)O)CCCN1; Isovaleryl = CC(C)CC(=O)*; Orn = NCCC[C@H](N)C(=O)O; Piv = CC(C)(C)C(=O)*; Mpa = O=C(O)CCS
Catalogue of IC50 values

So for CC1NC(=O)[C@H](Cc2c[nH]c3ccc(F)cc23)NC(=O)[C@H](Cc2c[nH]c3ccc(F)cc23)NC(=O)[C@@H](C)NC(=O)[C@H](CCCCN)NC(=O)CCSCc2cccc(c2)CSC[C@@H](C(N)=O)NC(=O)[C@]2(C)CCCN2C(=O)[C@H](Cc2ccc(O)cc2)NC(=O)C2=CN=C1S2 (some centres unmarked) [Compound 480] ([Mpa]K[dA][Trp(5-F)][Trp(5-F)][X48]Y[αMeP]C-NH2; linker 1-9 via mXylylene) , the logged IC50 turned out to be 100 to 1000 nM

The value of IC50 measured for the compound COc1ccc(C[C@@H]2NC(=O)[C@H](Cc3cnc[nH]3)NC(=O)[C@H](CC(=O)O)NC(=O)[C@H](Cc3c[nH]c4ccc(F)cc34)NC(=O)[C@H](Cc3c[nH]c4ccc(F)cc34)NC(=O)[C@@H](C)NC(=O)CCC3CCN(CC3)C(=O)c3ccc(cc3)C[C@@H](C(N)=O)NC(=O)[C@]3(C)CCCN3C2=O)cc1 [Compound 389] ([X34][dA][Trp(5-F)][Trp(5-F)]DHY(Me)[αMeP][Phe(4-COOH)]-NH2; lactam N-9) turned out to be 21000 to 50000 nM

Per the records, this compound ( C[C@@]12CCCN1C(=O)[C@H](Cc1ccc(O)cc1)NC(=O)[C@H](Cc1cnc[nH]1)NC(=O)[C@H](CC(=O)O)NC(=O)[C@H](Cc1c[nH]c3ccc(F)cc13)NC(=O)[C@H](Cc1c[nH]c3ccc(F)cc13)NC(=O)CNC(=O)[C@H](CCCN)NC(=O)CCSCc1cccc(c1)CSC[C@@H](C(N)=O)NC2=O [Compound 248] ([Mpa][Orn]G[Trp(5-F)][Trp(5-F)]DHY[αMeP]C-NH2; linker 1-10 via mXylylene) ) has IC50 equal to 100 to 1000 nM

Entry COc1ccc(C[C@@H]2NC(=O)[C@H]([C@@H](C)O)NC(=O)[C@@H]3C[C@H](F)CN3C(=O)[C@H](Cc3c[nH]c4ccc(F)cc34)NC(=O)[C@H](Cc3c[nH]c4ccc(F)cc34)NC(=O)[C@@H](C)NC(=O)[C@H](CCCCN)NC(=O)[C@@H](NC(=O)CC(C)C)CC(=O)NCCOc3ccc(cc3)C[C@@H](C(N)=O)NC(=O)[C@]3(C)CCCN3C2=O)cc1 [Compound 107] (Isovaleryl-DK[dA][Trp(5-F)][Trp(5-F)][Pro(cis-4-F)]TY(Me)[αMeP][AEF]-NH2; lactam 1-10) , IC50 reported as 100 to 1000 nM

Sample COc1ccc(C[C@@H]2NC(=O)[C@H]([C@@H](C)O)NC(=O)[C@@H]3C[C@H](F)CN3C(=O)[C@H](Cc3c[nH]c4ccc(F)cc34)NC(=O)[C@H](Cc3c[nH]c4ccc(F)cc34)NC(=O)[C@@H](C)NC(=O)[C@H](CCCCN)NC(=O)[C@@H](NC(=O)C(C)(C)C)CC(=O)NCCOc3ccc(cc3)C[C@@H](C(N)=O)NC(=O)[C@]3(C)CCCN3C2=O)cc1 [Compound 119] (Piv-DK[dA][Trp(5-F)][Trp(5-F)][Pro(cis-4-F)]TY(Me)[αMeP][AEF]-NH2; lactam 1-10) ; IC50 observed: 21000 to 50000 nM
